systemName: Sodium channel alpha subunits; brain (Types I, II, III) (Rattus norvegicus, UniProt P04775+P04774+P08104)
method: Concentration required to inhibit [3H]BTX binding to Sodium channel of rat brain
Listed compounds paired with reported IC50

structureAsSmiles | IC50 [nM]
Fc1ccc(-c2c[nH]c(CC3CCCCC3)n2)cc1 | 146
CCCCCCc1nc(-c2ccc(-c3ccccc3)cc2)c[nH]1 | 16
CCN(CC)CC(=O)Nc1c(C)cccc1C | 56000
c1ccc(-c2ccc(-c3c[nH]c(CCC4CCCCC4)n3)cc2)cc1 | 26
CCCC(CCC)c1nc(-c2ccc(-c3ccccc3)cc2)c[nH]1 | 100
c1ccc(-c2ccc(-c3c[nH]c(CCCC4CCCCC4)n3)cc2)cc1 | 19
